Entry source: paper PMC10397247

- test target: T1, P8A-bS
- T1 chain: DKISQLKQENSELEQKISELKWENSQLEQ
- assay protocol: two-hybrid library CCNG1;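 note: natural log of median RNA to DNA barcode read ratio; higher means stronger binding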
readout label: interaction score

Example binders with recorded interaction score:
# binder, readout label, value observed
records = [
    ("DENSQLEQKISELKQKNSELKWEISQLEQ [P5A-bS]", "interaction score", -1.1),
    ("DEISQLEQEISELEQKNSELKWKNSQLKQ [P3A-bS]", "interaction score", -0.303),
    ("DEISQLEQKNSELKQEISELEWKNSQLKQ [P7A-bS]", "interaction score", 0.493),
    ("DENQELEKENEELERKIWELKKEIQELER [4H1193-bH]", "interaction score", 0.622),
    ("DKISQLKQKISELKQENSELEWENSQLEQ [P4A-bS]", "interaction score", -0.866),
    ("DEISQLEQENSELEQENSELEWEISQLEQ [P1A-bS]", "interaction score", -0.899),
    ("DKISQLKQENSELEQKISELKWENSQLEQ [P8A-bS]", "interaction score", -0.428),
]

(A) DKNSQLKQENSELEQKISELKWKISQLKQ [P10A-bS]
(B) DKNSQLKQKISELKQKISELKWENSQLEQ [P12A-bS]
(C) DKNSQLKQEISELEQENSELEWKISQLKQ [P6A-bS]
(D) DKISQLKQKNSELKQKNSELKWKISQLKQ [P2A-bS]
(E) DENSQLEQEISELEQEISELEWKNSQLKQ [P11A-bS]
Ask | Put the binders in ascending order of interaction score. To answer, write out the labels according to the requested order.
Reply | B, D, A, C, E
(B: -1.07, D: -0.742, A: -0.395, C: 0.0461, E: 0.714)
